The values you see were collected from patent US20130130288A1.

Test System: T1, amyloid β-derived diffusible ligands (ADDLs), oligomers of Aβ1-42
T1 construct: number of copies not defined; also called Aβ oligomers; Aβ oligomer
Test Name: three-pronged Aβ ELISA (M90/1 polyclonal capture); ratio of binding to ADDLs over fibrillar Aβ
Items are presented alongside their recorded ADDL:Fibrillar.
The response must be a number in ratio with no trailing unit.

Binder: anti-ADDL antibody 19.3 (antibody, V domains shown) VH: EVQLVESGGGLVQPGGSLRLSCAASGFTFSSFGMHWVRQAPGKGLEWVAYISRGSSTIYYADTVKGRFTISRDNAKNSLYLQMNSLRAEDTAVYYCARGITTALDYWGQGTLVTVSS VL: DVVMTQSPLSLPVTPGEPASISCRSSQSIVHSNGNTYLEWYLQKPGQSPQLLIYKASNRFSGVPDRFSGSGSGTDFTLKISRVEAEDVGVYYCFQGSRLGPSFGQGTKLEIKR
Measured Result: 2
//
Binder: anti-ADDL antibody 17.1 (antibody, V domains shown) VH: EVQLVESGGGLVQPGGSLRLSCAASGFTFSSFGMHWVRQAPGKGLEWVAYISRGSSTIYYADTVKGRFTISRDNAKNSLYLQMNSLRAEDTAVYYCARGITTALDYWGQGTLVTVSS VL: DVVMTQSPLSLPVTPGEPASISCRSSQSIVHSNGNTYLEWYLQKPGQSPQLLIYKASNRFSGVPDRFSGSGSGTDFTLKISRVEAEDVGVYYCFQGSRVPASFGQGTKLEIKR
Measured Result: 2.1

# get_value(readout='ADDL:Fibrillar', item= anti-ADDL antibody 13.1 (antibody, V domains shown) VH: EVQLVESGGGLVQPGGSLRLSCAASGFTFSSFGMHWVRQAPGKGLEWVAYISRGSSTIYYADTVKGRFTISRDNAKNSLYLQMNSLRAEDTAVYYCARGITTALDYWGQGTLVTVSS VL: DVVMTQSPLSLPVTPGEPASISCRSSQSIVHSNGNTYLEWYLQKPGQSPQLLIYKASNRFSGVPDRFSGSGSGTDFTLKISRVEAEDVGVYYCFQGSKAHPSFGQGTKLEIKR ) 2

Can you check anti-ADDL antibody 11.4 (antibody, V domains shown) VH: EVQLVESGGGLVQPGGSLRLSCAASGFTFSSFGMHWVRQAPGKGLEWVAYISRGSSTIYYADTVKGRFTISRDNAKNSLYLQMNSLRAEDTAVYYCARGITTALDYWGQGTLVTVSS VL: DVVMTQSPLSLPVTPGEPASISCRSSQSIVHSNGNTYLEWYLQKPGQSPQLLIYKASNRFSGVPDRFSGSGSGTDFTLKISRVEAEDVGVYYCFQGSRVPVRFGQGTKLEIKR next? 2.4
